src = paper PMC6469940

- Tested On: hM4D(Gi) (human M4 muscarinic receptor-based DREADD) (Homo sapiens, UniProt P08173, A203G/Y113C)
- Construct: hM4D(Gi) plasmid (Addgene 45548)
- Sequence (P08173 whole entry Y113C/A203G): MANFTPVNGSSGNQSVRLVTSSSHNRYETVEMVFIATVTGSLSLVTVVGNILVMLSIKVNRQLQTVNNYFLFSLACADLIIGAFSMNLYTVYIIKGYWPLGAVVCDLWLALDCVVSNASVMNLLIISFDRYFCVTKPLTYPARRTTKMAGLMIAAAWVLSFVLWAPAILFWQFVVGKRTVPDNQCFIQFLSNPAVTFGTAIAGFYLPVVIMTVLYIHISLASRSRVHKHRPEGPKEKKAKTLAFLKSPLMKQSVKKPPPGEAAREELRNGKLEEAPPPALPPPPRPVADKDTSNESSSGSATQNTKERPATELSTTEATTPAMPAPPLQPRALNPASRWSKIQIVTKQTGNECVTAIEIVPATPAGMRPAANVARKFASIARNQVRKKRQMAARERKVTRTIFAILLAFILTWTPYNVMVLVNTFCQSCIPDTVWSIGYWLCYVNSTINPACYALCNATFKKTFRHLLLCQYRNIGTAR
- Assay Info: whole-cell patch clamp of Kir3.[…] current potentiation in HEK cells transfected with hM4D(Gi)
Measurement Type: pEC50
Interpret pEC50 as the negative base-10 log of the concentration measured in mol/L.

CN1CCN(C2=Nc3ccccc3Cc3ccccc32)CC1 [PLP, perlapine]; 7.40

Here is another compound to look at.
Please list pEC50 recorded for the compound c1ccc2c(c1)N=C(N1CCNCC1)c1ccccc1N2 [C21, compound 21]
7.70
